Sourced from PubChem BioAssay AID1347081

- assayText: qHTS for Inhibitors of the Functional Ribonucleoprotein Complex (vRNP) of Lassa (LASV) Arenavirus: Viability assay - alamar blue signal for LASV Confirmatory Screen
- assayConditions: LASV vRNP counter-screen cells; series mostly up to 53.9 µM
Inconclusive results are not listed. The source made the active and inactive calls. The call rests on the fitted dose curve.
measure: Potency

Example entries and their recorded answers appear below.
INSERT INTO results (compound, measure, result) VALUES
  ('Cc1cnc(NC(=O)C2=C(O)c3ccccc3S(=O)(=O)N2C)s1', 'Potency', 'inactive'),
  ('C=C(C)[C@H]1Cc2c(ccc3c2O[C@@H]2COc4cc(OC)c(OC)cc4[C@@H]2C3=O)O1', 'Potency', '0.193 µM (active)'),
  ('C=C(C)C1Cc2c(ccc3c2OC2COc4cc(OC)c(OC)cc4C2C3=O)O1 (centres undefined)', 'Potency', '0.0968 µM (active)'),
  ('CCC[C@H](N[C@@H](C)C(=O)N1[C@@H]2CCCC[C@H]2C[C@H]1C(=O)O)C(=O)OCC', 'Potency', 'inactive'),
  ('Fc1ccc(CNc2ncnc3ccc(F)cc23)cc1', 'Potency', '15.3 µM (active)');

Query: Any idea what its Potency is? The compound is CC1OC(=O)[C@@H](C(C)C)NC(=O)C(C(C)C)OC(=O)[C@H](C(C)C)NC(=O)C(C)OC(=O)[C@@H](C(C)C)NC(=O)C(C(C)C)OC(=O)[C@H](C(C)C)NC(=O)C(C)OC(=O)[C@@H](C(C)C)NC(=O)C(C(C)C)OC(=O)[C@H](C(C)C)NC1=O (some centres undefined)
Response: 1.22 µM (active)

Query: Any idea what its Potency is? The compound is Cc1cccc(-c2[nH]c(C(C)(C)C)nc2-c2ccc3c(c2)OCO3)n1
Response: 4.85 µM (active)

Query: Any idea what its Potency is? The compound is CCC1OC2(C)C(O)C(/C=C/C=C/C=C/c3oc(=O)cc(OC)c3C)OC1(C)C2OC(C)=O (centres undefined)
Response: 0.109 µM (active)

Query: Any idea what its Potency is? The compound is CC12C(=O)OC(=O)C1(C)C1CCC2O1 (centres undefined)
Response: 3.85 µM (active)

Query: Any idea what its Potency is? The compound is Cc1ccc2c(c1)C1CN(C)CCC1N2 (centres undefined)
Response: inactive

Query: Any idea what its Potency is? The compound is CCC(c1ccc(O)cc1)C(CC)c1ccc(O)cc1 (centres undefined)
Response: inactive

Query: Any idea what its Potency is? The compound is CC(O)(P(=O)(O)O)P(=O)(O)O
Response: inactive

Query: Any idea what its Potency is? The compound is Oc1cc(Cl)ccc1Oc1ccc(Cl)cc1Cl
Response: 39.5 µM (active)
